- Measured Target: EGFR L858R/T790M/C797S (BaF3-LTC cells) (Homo sapiens, UniProt P00533, C797S/L858R/T790M)
- Construct: expressed in transfected cells; host or cells: BaF3
- Sequence (P00533 25-1210 T790M/C797S/L858R): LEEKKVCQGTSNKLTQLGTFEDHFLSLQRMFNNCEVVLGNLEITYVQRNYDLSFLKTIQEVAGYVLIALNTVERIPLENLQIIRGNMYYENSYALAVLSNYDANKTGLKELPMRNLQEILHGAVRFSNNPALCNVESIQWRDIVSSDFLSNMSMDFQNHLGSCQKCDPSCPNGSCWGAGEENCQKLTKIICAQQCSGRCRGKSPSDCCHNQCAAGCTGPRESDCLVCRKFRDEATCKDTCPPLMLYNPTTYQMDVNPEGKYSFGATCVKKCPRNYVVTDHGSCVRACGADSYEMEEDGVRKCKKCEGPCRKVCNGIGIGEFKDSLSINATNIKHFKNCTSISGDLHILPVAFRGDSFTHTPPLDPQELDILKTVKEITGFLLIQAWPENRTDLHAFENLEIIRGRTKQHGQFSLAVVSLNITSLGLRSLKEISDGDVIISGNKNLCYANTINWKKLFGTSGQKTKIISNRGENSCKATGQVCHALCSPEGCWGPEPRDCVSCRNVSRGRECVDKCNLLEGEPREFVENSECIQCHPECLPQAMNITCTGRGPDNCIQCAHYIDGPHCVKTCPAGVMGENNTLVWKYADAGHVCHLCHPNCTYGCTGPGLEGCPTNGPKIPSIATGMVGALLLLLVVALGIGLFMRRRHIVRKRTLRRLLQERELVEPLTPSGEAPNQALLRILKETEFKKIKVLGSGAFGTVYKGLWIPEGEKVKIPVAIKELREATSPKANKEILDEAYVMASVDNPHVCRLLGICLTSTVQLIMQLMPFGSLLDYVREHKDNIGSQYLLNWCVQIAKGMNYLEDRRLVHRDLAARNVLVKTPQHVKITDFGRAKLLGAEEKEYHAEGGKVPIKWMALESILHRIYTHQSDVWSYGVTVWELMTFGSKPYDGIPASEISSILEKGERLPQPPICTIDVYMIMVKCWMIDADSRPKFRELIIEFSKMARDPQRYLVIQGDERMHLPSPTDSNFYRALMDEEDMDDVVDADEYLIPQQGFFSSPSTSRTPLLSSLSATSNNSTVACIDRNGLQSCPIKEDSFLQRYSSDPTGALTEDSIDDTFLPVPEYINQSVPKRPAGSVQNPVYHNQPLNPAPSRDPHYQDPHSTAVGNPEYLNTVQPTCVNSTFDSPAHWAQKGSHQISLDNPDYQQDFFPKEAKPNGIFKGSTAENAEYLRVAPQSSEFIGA
- Experiment Summary: EGFR degradation HTRF assay, BaF3-LTC cells
- Type: cell-based
- Recorded Conditions: BaF3-LTC cells; EGFR degradation, IC50 (DC50) from curve fit; read-out: DC50(nM) BaF3-LTC
Endpoint Label: DC50 (nM)
Record the value in nM, omitting the unit from your answer.

CCc1cc(Nc2ncc(Br)c(Nc3ccc4nc(C(C)(C)O)ccc4c3P(C)(C)=O)n2)c(OC)cc1N1CCC(N2CCN(C(=O)[C@@H]3CCN(c4cc(F)c(C5CCC(=O)NC5=O)c(F)c4)C3)CC2)CC1 (stereo partly drawn) [Example 680] = 4.96
CCc1cc(Nc2ncc(Br)c(Nc3ccc4nc(C)sc4c3P(C)(C)=O)n2)c(OC)cc1N1CCC(N2CCN(C(=O)[C@@H]3CCN(c4cc(F)c([C@H]5CCC(=O)NC5=O)c(F)c4)C3)CC2)CC1 [Example 685] = 5.29

# ---- query compound ----
**Q:** What DC50 appears in the records for this compound with EGFR L858R/T790M/C797S (BaF3-LTC cells) (Homo sapiens, UniProt P00533, C797S/L858R/T790M)? CCOc1cc(N2CCC(N3CCN(CCc4cc5oc(=O)n(C6CCC(=O)NC6=O)c5cc4Cl)CC3)CC2)c(CC)cc1Nc1ncc(Br)c(Nc2ccc3c(=O)n(CC)ncc3c2P(C)(C)=O)n1 (stereo not drawn) [Example 626]
**A:** 5.43

---

Dmax overview
- Measured Target: EGFR L858R/T790M/C797S (BaF3-LTC cells) (Homo sapiens, UniProt P00533, C797S/L858R/T790M)
- Construct: expressed in transfected cells; host or cells: BaF3
- Experiment Summary: EGFR degradation HTRF assay, BaF3-LTC cells
- Type: cell-based
- Recorded Conditions: BaF3-LTC, 16h treatment, maximum percentage of degradation; read-out: LTC Dmax (%)
Field: numeric (%). Do not append units.

Completed entries (count: 5):
CP(C)(=O)c1c(Nc2nc(Nc3ccc(N4CCN(C5CN(CC6CN(c7ccc8c(c7)C(=O)N(C7CCC(=O)NC7=O)C8=O)C6)C5)CC4)c(F)c3)ncc2Br)ccc2nccnc12 (centres unmarked) = 92.1
CCc1cc(Nc2ncc(Br)c(Nc3ccc4c(=O)n(C)ccc4c3P(C)(C)=O)n2)c(OC)cc1N1CCC(N2CCN(CCc3cccc4c3n(C)c(=O)n4C3CCC(=O)NC3=O)CC2)CC1 (centres unmarked) = 95.3
COc1cc(N2CCC(N3CCN(CCc4cc(F)c(C5CCC(=O)NC5=O)c(F)c4)CC3)CC2)c(C(C)O)cc1Nc1ncc(Br)c(Nc2ccc3nccnc3c2P(C)(C)=O)n1 (centres unmarked) = 94.5
CCc1cc(Nc2ncc(Br)c(Nc3ccc4nccnc4c3P(C)(C)=O)n2)c(OC)cc1N1CCC(N2CCN(CCc3ccc(C4CCC(=O)NC4=O)c(F)c3)[C@@H](CO)C2)CC1 (some centres unmarked) = 84.8
CCc1cc(Nc2ncc(Br)c(Nc3ccc4nccnc4c3P(C)(C)=O)n2)c(OC)cc1N1CCC(N2CCN(C(=O)[C@H]3C[C@H](Nc4ccc(C5CCC(=O)NC5=O)cc4)C3)CC2)CC1 (some centres unmarked) = 80.8

**Q:** Consider the molecule CCc1cc(Nc2ncc(Br)c(Nc3ccc4nccnc4c3P(C)(C)=O)n2)c(OC)cc1N1CCC(N2CCN(C3CCN(c4ccc(C5CCC(=O)NC5=O)cc4)CC3)CC2)CC1 (centres unmarked) and give its measured Dmax.
**A:** 85

**Q:** Likewise for CCc1cc(Nc2ncc(Br)c(Nc3ccc4nc(C)ccc4c3P(C)(C)=O)n2)c(OC)cc1N1CCC(N2CCN(C(=O)[C@@H]3CCN(c4cc(F)c(C5CCC(=O)NC5=O)c(F)c4)C3)CC2)CC1 (some centres unmarked) ?
**A:** 93.9

**Q:** Proceed to CCc1cc(Nc2ncc(Br)c(Nc3ccc4nccnc4c3P(C)(C)=O)n2)c(OC)cc1N1CCC(N2CCN(C(=O)C3CN(c4cccc(C5CCC(=O)NC5=O)c4)C3)CC2)CC1 (centres unmarked)
**A:** 72

Reference for the values: patent US20230265116A1
